test system: MS2 coat protein; experiment: apparent KD of MS2 coat protein; designed switch direction (-1 OFF switch, 1 ON switch): -1; higher = weaker reporter binding; details: Eterna round: R95; input ligand: microRNA oligo, concentration not stated
readout.kind: apparent KD of MS2 coat protein (nM)
One number for each entry, in nM.

Here's what some known entries look like.
UUUGUCUGUGUGAGGAUAUACUUGUUUGGGUUUUUGUAGAAGGCACAUGAGGAUCACCCAUGUAUUUUGUUGUG [JR_BME4_Sub017] (puzzle: Brourd's mod of Exclusion 4)	49.7
AAAUAACAAGCAAGAUCCUACAUGAGGAUCACCCAUGUGCUCGUCUUAAUAAGUACUAUCACGAAAGUGAUAGUACA [Mat - Sensor v3 - turn-off var 1 - Eli Mod - D60] (puzzle: Sensor v3, turn-off variant 1)	383
AAGUAUAGAGGAUAUAGUGAGUACUACAUGAGGAUCACCCAUGUUCUUCAAAGCGUAUUUCUAGAAGGCUGUUAAA [EX-5 Malc#18] (puzzle: Exclusion 5)	48.7

I would be grateful if you could provide apparent KD of MS2 coat protein for each of the following entries.
1. CGUGCGUAUGUGAGGAUAUGCUGGUCCUUGGAUCGGCAGAAGGCACAUGAGGAUCACCCAUGUGGUGUCGUCCA [salish99_Bmod_ex4_089] (puzzle: Brourd's mod of Exclusion 4)
2. GGGAUGUCAGGAUAUACAUGAGGAUCACCCAUGUAGAGAUAAGAUAGGGAAAGAGUAGGUAGAAGGGACGAGAG [JR_Exclu3_Sub044] (puzzle: Exclusion 3)

Solution:
85.7
19.9

Where do these numbers come from? They come from the supplement of paper PMC9170038.
